molecular target: UniProt:Q99705; experiment: Binding assay for human melanin-concentrating hormone (MCH1) receptor; settings: membranes from CHO-K1 cells expressing human MCH1 receptor; 1.4 nM [3H]-labeled radioligand, 60 min at 25° C., pH 7.4; Ki from Cheng Prusoff equation
Sequence (Q99705 whole entry): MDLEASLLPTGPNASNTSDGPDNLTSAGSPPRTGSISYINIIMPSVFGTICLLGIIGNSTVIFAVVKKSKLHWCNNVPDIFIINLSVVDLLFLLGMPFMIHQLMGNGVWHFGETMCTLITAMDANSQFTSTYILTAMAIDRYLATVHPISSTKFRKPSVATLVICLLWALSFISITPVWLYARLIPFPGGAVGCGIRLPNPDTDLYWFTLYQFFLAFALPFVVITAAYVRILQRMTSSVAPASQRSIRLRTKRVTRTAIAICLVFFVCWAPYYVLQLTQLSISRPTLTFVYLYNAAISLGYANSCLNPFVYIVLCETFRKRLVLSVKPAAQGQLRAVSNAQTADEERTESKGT
pKi: −log10 of the molar value. Where a name gives a salt, the structure may show the parent alone.
Each entry gets not satisfied if its pKi stays under 7, and satisfied if its pKi is 7 or above.

> print(dat)
                                   molecule     class.name
1  Cl.O=c1cc(-c2ccc(C(F)(F)F)cc2)ccn1-c1ccc2c3c([nH]c2c1)CCN1CCCC31 (stereo not shown) [Example 26, Hydrochloride]      satisfied
2  Cl.Cn1c2c(c3ccc(-n4ccc(OCc5ccccc5)cc4=O)cc31)CN1CCCC1C2 (stereo not shown) [Example 11, Hydrochloride]      satisfied
3  Cl.Cn1c2c(c3ccc(-n4ccc(OCc5ccc(C(F)(F)F)nc5)cc4=O)cc31)CN1CCCCC1C2 (stereo not shown) [Example 34, Hydrochloride]      satisfied
4  Cl.Cn1c2c(c3ccc(-n4ccc(-c5ccc(C(F)(F)F)cn5)cc4=O)cc31)CCN1CCCCC21 (stereo not shown) [Example 6, Hydrochloride]  not satisfied
5  Cc1ccc(COc2ccn(-c3ccc4c5c(n(C)c4c3)CC3CCCCN3C5)c(=O)c2)cn1 (stereo not shown) [Example 33, Dihydrochloride]      satisfied
